# Test system: MS2 coat protein
# method description: apparent KD of MS2 coat protein; designed switch direction (-1 OFF switch, 1 ON switch): -1; higher = weaker reporter binding
# particulars: Eterna round: R95; input ligand: FMN 200 uM
property label: apparent KD of MS2 coat protein (nM)
Report only the number, with the unit nM understood.

What the record says about AAGAAACAUGAGGAUCACCCAUGUGAGGAUAUGAAAAAGAAAAGAAAAGAAAGAAGCAUCAGAAGGCACAAAGG [salish99-ex1_r3_026] (puzzle: Exclusion 1) : apparent KD of MS2 coat protein is 36.1

What the record says about AGUACUAACACGGAUGUGUUAGUACAAUAAGCUUGUGAAACAUGAGGAUCACCCAUGUCCUCAUAAGCUCGUCUUAU [salish99_TOv2_r3_067] (puzzle: Sensor v3, turn-off variant 2) : apparent KD of MS2 coat protein is 15.5

Next:
What the record says about UAUAAUACAUAGGAUAUCGAAAUAAUCAUUUAACGAGAAGGAUGAACAUGAGGAUCACCCAUGUGGUAUCAUGG [Mat - Exclusion 6 - JL Mod - D11] (puzzle: Exclusion 6) : apparent KD of MS2 coat protein is 379

###

# System: MS2 coat protein
# method description: apparent KD of MS2 coat protein; designed switch direction (-1 OFF switch, 1 ON switch): 1; higher = weaker reporter binding
# particulars: input ligand: microRNA oligo, concentration not stated
property label: apparent KD of MS2 coat protein (µM)
Report only the number, with the unit µM understood.

Sample records with apparent KD of MS2 coat protein:
What the record says about UGUACCUGCACAGGAUAUCAUGCGAAAAUUGCGUGAGAAGGGUGAAUACUGUCUUUCUAAGAGUACAUGAGGAUCACCCAUGUA [SameState NG1 #61] (Eterna round: R96, puzzle: Same State NG 1) : apparent KD of MS2 coat protein is 0.0918

What the record says about GCGGAACCUGACAUGAGGAUCACCCAUGUUCCGGAAACGGCACAGGAUAUCUGUCCGAAAAGGUCAGAGAAGGGUGUAAACCGC [Fiskers NG3ss - 97] (Eterna round: R96, puzzle: Same State NG 3) : apparent KD of MS2 coat protein is 0.325

What the record says about GUUCGGAAUCGAGCUGACAUGAGGAUCACCCAUGUUAGUGGGAAGGAUAUGGUACAGAAACUGUACCAGAAGGUCCUGCUGUCU [MOD2 Omei's SS(NG) 3 AV9] (Eterna round: R96, puzzle: Same State NG 3) : apparent KD of MS2 coat protein is 0.0572

Next:
What the record says about UUGAUUAACGUAGGAUAUCGACCUACAUGAGGAUCACCCAUGUCUUUGAAUAGAUUUUUUUGUUACGAGAAGGACGUUAUGUAU [JR_SSNG2_Sub066] (Eterna round: R96, puzzle: Same State NG 2) : apparent KD of MS2 coat protein is 0.0496

What the record says about UGUUGUAUUACAGGAUAUCUAGUAUGUUUAUUUAGAGAAGGGUAUUCACAUGAGGAUCACCCAUGUAUAUACGAGGAAGUUGUG [JMF's solution 38] (Eterna round: R96, puzzle: Same State NG 1) : apparent KD of MS2 coat protein is 0.0308

What the record says about GGAGCCGGCCUAGGAUAUUUCAUUAAAAAACAUGAGGAUCACCCAUGUAGGCCAGAAGGCCUUGGGAAGAAGGAGGUCGGCUCC [Loop Effect - U24] (Eterna round: R96, puzzle: Same State NG 2) : apparent KD of MS2 coat protein is 0.0162

What the record says about UGACACACGGCAGGAUAUGCUUAGCAAAGCUAAGCAGAAGGGCCUCAUGUCGUGGAAAUGUGACAUGAGGAUCACCCAUGUCGC [Omei SS(NG)1 Cv5] (Eterna round: R96, puzzle: Same State NG 1) : apparent KD of MS2 coat protein is 0.0178

What the record says about GAGUGGCAGUUAGGAUAUACAGUGAUAAUGAUAGUAGAAGGAACAGACAUGAGGAUCACCCAUGUAGGACUAAUCCAGAGAGAG [Parity 33 - Jieux - Same State NG 1] (Eterna round: R96, puzzle: Same State NG 1) : apparent KD of MS2 coat protein is 0.0298

What the record says about CCGCUAAAUGGAGGAUAUGGAGCCUUAUUGGCUCCAGAAGGUCAAAACAUGAGGAUCACCCAUGUGCGGCGGUCUAAUGACCGA [Eli NG1ss - 48] (Eterna round: R96, puzzle: Same State NG 1) : apparent KD of MS2 coat protein is 0.122
